Assay: chemical genetic growth profiling, strain panel (AID 1159580);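 note: tested at 20 µM; growth read once vehicle control cultures reached saturation at 30 °C; 1 = growth at the plate median or of vehicle wells; lower values mean less growth of the strain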
Settings: S. cerevisiae deletion strains, growth OD, locus YML124C, strain tub3, hits give low values
Among all 5,500 compounds or so, about 2,000 (36%) were called active. Roughly 18% stayed inconclusive and do not appear here. This is one part of the list.
experimental_endpoint: normalized growth

| molecule | measured_number |
| --- | --- |
| OC(CCN1CCCCC1)(c1ccccc1)c1ccccc1 | 1 |
| CC(C)=CCc1c(O)cc(C)oc1=O | 0.973 |
| S=C=NCc1ccccc1 | 0.0581 |
| C[N+](C)(C)CC(=O)[O-] | 0.992 |
| NC(=O)c1ncn([C@@H]2O[C@H](CO)[C@@H](O)[C@H]2O)c1O | 1.01 |
| CCCCCC(C)N (configuration not stated) | 0.997 |
| CC[C@@H](CO)NCCN[C@@H](CC)CO | 0.998 |

====

Assay: chemical genetic growth profiling, strain panel (AID 1159580);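 note: tested at 20 µM; growth read once vehicle control cultures reached saturation at 30 °C; 1 = growth at the plate median or of vehicle wells; lower values mean less growth of the strain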
Details: S. cerevisiae deletion strains, growth OD, locus YLR371W, strain rom2, hits give low values
About 2,000 (36%) of roughly 5,500 compounds were called active. Inconclusive results (about 18%) are left out. The list shows a part of the results.

| compound | normalized growth |
| --- | --- |
| COc1cccc2c1CCC1CC(=O)CCC21C (stereo not given) | 0.965 |
| CC(C)[N+](C)(CCOC(=O)C1c2ccccc2Oc2ccccc21)C(C)C | 1.01 |
| COc1ccc(C(=O)c2ccccc2O)c(O)c1 | 0.91 |
| CCc1ccc(CCOc2ccc(CC3SC(=O)NC3=O)cc2)nc1 (stereo not given) | 0.989 |
| COc1c(CC=C(C)C)c2c(c3oc(=O)c(-c4ccc(O)cc4)c(O)c13)C=CC(C)(C)O2 | 0.769 |
| C[N+](C)(C)CCOP(=O)([O-])OP(=O)(O)OC[C@H]1OC(n2ccc(N)nc2=O)[C@H](O)[C@@H]1O (stereo not given in full) | 1.01 |
| COc1ccc(C(=O)c2ccccc2)c(O)c1 | 0.918 |
| COc1cc(O)c(C(=O)c2ccccc2)cc1O | 0.966 |
| C=CC(C)(C)c1c2c(c(O)c3c(=O)c4ccc(O)c(O)c4oc13)C=CC(C)(C)O2 | 0.799 |
| N#Cc1c(Cl)c(Cl)c(Cl)c(C#N)c1Cl | 0.975 |
| CCCCCC(C)N (stereo not given) | 0.989 |
| COc1ccc(-c2coc3c(OC)c(OC)cc(OC)c3c2=O)cc1 | 0.993 |
| CC[C@@H](CO)NCCN[C@@H](CC)CO | 1.01 |
| NC(=O)N1c2ccccc2CC(=O)c2ccccc21 | 0.969 |
| CN1Cc2c(ccc3c2OCO3)C2C(O)Cc3cc4c(cc3C21)OCO4 (stereo not given) | 1.01 |

====

Experiment: chemical genetic growth profiling, strain panel (AID 1159580);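 note: tested at 20 µM; growth read once vehicle control cultures reached saturation at 30 °C; 1 = growth at the plate median or of vehicle wells; lower values mean less growth of the strain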
Details: S. cerevisiae deletion strains, growth OD, locus YBR023C, strain chs3, hits give low values
About 2,000 (36%) of roughly 5,500 compounds were called active. Another 18% or so got no clear call; they are omitted. This is one part of the list.

| molecule | normalized growth |
| --- | --- |
| COC(=O)[C@@H]1C(O)CC[C@H]2CN3CCc4c([nH]c5ccccc45)[C@@H]3C[C@@H]21 (stereo partly drawn) | 1.02 |
| Cc1cccc(Nc2cc(Cl)nc(SCC(=O)O)n2)c1C | 1 |
| CC(C)N(C(=O)CCl)c1ccccc1 | 1.02 |
| CNc1ccccc1C(=O)N1CCc2c([nH]c3ccccc23)C1=O | 1 |
| COc1c2c(c(CC=C(C)C)c3oc(=O)c(-c4ccc(O)cc4)c(O)c13)OC(C)(C)C=C2 | 0.854 |
| CCOC(=O)c1ncn2c1CN(C)C(=O)c1cc(F)ccc1-2 | 1.02 |
| CCSC(=N)N | 1.02 |
| c1ccc(CN(CC2=NCCN2)c2ccccc2)cc1 | 1.02 |
| CCCCCCCCCCCCCCCCOP(=O)([O-])OCC[N+](C)(C)C | 0.0636 |
| CC[C@@H](CO)NCCN[C@@H](CC)CO | 1.04 |
| O=C(/C=C/c1ccccc1)O[C@H]1C[C@@H](O)[C@]2(O)C=CO[C@@H](O[C@@H]3O[C@H](CO)[C@@H](O)[C@H](O)[C@H]3O)[C@H]12 | 1.02 |
| CN1C2CC3C[C@H]1C(O3)C2O (stereo partly drawn) | 1.02 |
| CC(C)CC1C(=O)N2CCC[C@H]2C2(O)O[C@](NC(=O)C3C=C4c5cccc6[nH]c(Br)c(c56)C[C@H]4N(C)C3)(C(C)C)C(=O)N12 (stereo partly drawn) | 0.992 |
| Cc1cc(C(C)(C)CC(C)(C)C)ccc1OCCOCC[N+](C)(C)Cc1ccccc1 | 0.0588 |
| COc1cc2c(cc1OC)C(=O)C(CC1CCN(Cc3ccccc3)CC1)C2 (stereo not drawn) | 0.988 |
| CNC1(C)C2CCC(C2)C1(C)C (stereo not drawn) | 0.981 |
| COC(=O)C1[C@H]2C[C@H]3c4[nH]c5ccccc5c4CCN3C[C@@H]2CC[C@@H]1O (stereo partly drawn) | 0.964 |
| C[N+](C)(C)CC(=O)[O-] | 0.998 |
| CC(C)(C)CC(C)(C)c1ccc(OCCOCC[N+](C)(C)Cc2ccccc2)cc1 | 0.0641 |
| OC(CCN1CCCCC1)(c1ccccc1)c1ccccc1 | 0.99 |
| NCC1CCCCC1CC(=O)O (stereo not drawn) | 1.02 |
| CC(=O)O[C@]1(C(C)=O)CCC2C3C=C(C)C4=CC(=O)CCC4(C)C3CCC21C (stereo partly drawn) | 0.92 |
| CCCCOc1ccc(OCCCN2CCOCC2)cc1 | 0.946 |
